Hey, just so you know, these numbers are from patent US20240270826A1.

Recorded kon for the following binders
Biological target: T1, SARS-CoV-2 spike trimer S (Wuhan, SmT1) (SARS-CoV-2 Wuhan)
T1 construct: extracellular domain
Experiment: SPR, antigen on chip

[
  {
    "BINDER": "NRCoV2-14 VHH (VHH) VHH: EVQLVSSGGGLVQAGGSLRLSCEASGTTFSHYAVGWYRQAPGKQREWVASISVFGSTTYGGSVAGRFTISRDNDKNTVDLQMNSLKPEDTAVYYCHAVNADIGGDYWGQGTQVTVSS",
    "kon / M⁻¹ s⁻¹": 528000
  },
  {
    "BINDER": "NRCoV2-S2G3 VHH (VHH) VHH: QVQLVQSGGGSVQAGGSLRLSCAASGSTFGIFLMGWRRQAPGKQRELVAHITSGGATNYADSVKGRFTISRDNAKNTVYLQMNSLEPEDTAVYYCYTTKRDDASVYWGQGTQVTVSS",
    "kon / M⁻¹ s⁻¹": 162000
  },
  {
    "BINDER": "NRCoV2-S2A4 VHH (VHH) VHH: QVQLVQSGGGLVQAGGSLRLSCAVSGSPFRSNVMEWYRQAPGKQRELVASISTGGSRTYTDSVKGRFTISRDNAKNEAFLQMNSLKPEDTAVYYCHAAARDSHGIYLLDTWGQGTQVTVSS",
    "kon / M⁻¹ s⁻¹": 34900
  },
  {
    "BINDER": "NRCoV2-1d VHH (VHH) VHH: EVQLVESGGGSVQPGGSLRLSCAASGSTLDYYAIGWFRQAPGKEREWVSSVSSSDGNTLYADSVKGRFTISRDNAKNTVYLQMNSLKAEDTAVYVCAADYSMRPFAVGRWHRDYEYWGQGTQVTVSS",
    "kon / M⁻¹ s⁻¹": "1.06e+06"
  },
  {
    "BINDER": "NRCoV2-03 VHH (VHH) VHH: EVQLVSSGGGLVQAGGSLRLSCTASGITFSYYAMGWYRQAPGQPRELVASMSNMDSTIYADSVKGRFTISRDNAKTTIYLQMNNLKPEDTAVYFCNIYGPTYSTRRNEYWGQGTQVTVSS",
    "kon / M⁻¹ s⁻¹": 250000
  },
  {
    "BINDER": "NRCoV2-15 VHH (VHH) VHH: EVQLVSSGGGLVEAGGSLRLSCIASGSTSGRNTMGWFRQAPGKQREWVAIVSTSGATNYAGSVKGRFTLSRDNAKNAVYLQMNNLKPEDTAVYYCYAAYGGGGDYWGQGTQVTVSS",
    "kon / M⁻¹ s⁻¹": 706000
  },
  {
    "BINDER": "NRCoV2-18 VHH (VHH) VHH: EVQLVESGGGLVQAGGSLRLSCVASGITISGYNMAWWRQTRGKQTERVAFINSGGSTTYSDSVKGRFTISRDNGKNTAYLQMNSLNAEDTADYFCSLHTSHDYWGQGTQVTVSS",
    "kon / M⁻¹ s⁻¹": 395000
  },
  {
    "BINDER": "NRCoV2-11 VHH (VHH) VHH: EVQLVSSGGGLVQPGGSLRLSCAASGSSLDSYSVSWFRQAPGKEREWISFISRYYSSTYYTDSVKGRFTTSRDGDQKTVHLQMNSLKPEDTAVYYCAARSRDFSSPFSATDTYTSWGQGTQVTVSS",
    "kon / M⁻¹ s⁻¹": "1.21e+06"
  }
]
